tested on: Es-2; assay: Primary qHTS to identify gynecologic anti-cancer compounds using libraries of approved drugs and bioactive compounds (AID 1345084); details: Gynecologic cancer cell panel viability, ATPlite luminescence, 48 h; series mostly up to 57.5 µM; note: nearly all actives have a fitted effect of over 55% in size
Results filed as inconclusive are left out. Activity calls are given as the source filed them. Calls come from the whole dose curve; as a rule, active = well fitted cell-killing curve with a large enough effect; inconclusive = small, poorly fitted or top-dose-only effect, or effect the other way; inactive = flat fitted curve, though single readings scatter.
Answer with one of the outcomes label 1 for active, label 0 for inactive

# smiles.str, cat
records = [
    ("O=C(NCC1CCOCC1)c1cnc(Nc2ccc(Cl)cc2Cl)nc1C(F)(F)F", "label 0"),
    ("O=S(=O)(O)C(F)(F)C(F)(F)C(F)(F)C(F)(F)C(F)(F)C(F)(F)C(F)(F)C(F)(F)F", "label 0"),
    ("O=C(Oc1ccc([N+](=O)[O-])cc1)N1CCC(C(O)(c2ccc3c(c2)OCO3)c2ccc3c(c2)OCO3)CC1", "label 0"),
]

Request: Short answer needed: outcome of this test for O=[N+]([O-])c1ccc([As](=O)(O)O)cc1 ?
Response: label 0

----------
test: qHTS for differential inhibitors of proliferation of Plasmodium falciparum line HB3 (AID 1886); details: Plasmodium falciparum HB3 proliferation inhibition; series mostly up to 28.7 µM;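 note: parasites grown with compound for 72 h before SYBR Green readout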
Results filed as inconclusive are left out. Activity calls are given as the source filed them. The call rests on the fitted dose curve; in most records, active means well fitted curve in the direction sought with a large enough effect; inconclusive means small, poorly fitted or top-dose-only effect, or another doubt; inactive means no such curve, though single readings can be large or run the other way.
Answer with one of the outcomes given here: 1 = active, 0 = inactive

Look over these answered cases.
# compound, cat
records = [
    ("CCCN1CCO[C@@H]2c3cc(O)ccc3OC[C@H]21", 0),
    ("C[C@@H](N)Cc1cnc[nH]1", 0),
    ("C[N+](C)(C)CC(=O)O", 0),
    ("NC1CC1c1ccccc1 (configuration not stated)", 1),
    ("C=CCN1CC[C@]23CCCCC2[C@H]1Cc1ccc(O)cc13 (some centres not stated)", 0),
    ("Cn1cnc(CCN)c1", 0),
]

Request: Tell me the recorded outcome of this test for O=C(O)CC[N+](=O)[O-] .
Response: 0

----------
conditions: Ebola virus entry assay, green channel fluorescence
Entries with a potency or affinity are not part of this list. Activity calls are given as the source filed them.
measured.attribute: outcome

# molecule, outcome
measured = [
    ("[O-][n+]1cccc(/C(Cl)=N/OC[C@@H](O)CN2CCCCC2)c1", "inactive"),
    ("Nc1ccccc1N", "inactive"),
    ("Nc1ccc(Cl)cc1N", "inactive"),
    ("C[C@H](CN1CCCC1)C(=O)c1ccc(C(F)(F)F)cc1", "inactive"),
    ("OCc1ccccn1", "inactive"),
    ("CC(C)(C)C(O)C(Oc1ccc(Cl)cc1)n1cncn1 (centres undefined)", "inactive"),
    ("c1cc2ccc3cccc4ccc(c1)c2c34", "inactive"),
    ("CCN(CC)CCNC(=O)c1ccc(NC(C)=O)cc1", "inactive"),
    ("CCCCC(CC)COC(=O)c1ccccc1C(=O)O (centres undefined)", "inactive"),
    ("C1CCC(NC2CCCCC2)CC1", "inactive"),
]

Request: For the molecule CC(C)(C)c1ccc(O)c(O)c1 , what outcome is on record?
Response: inactive

Request: GET /values?readout=outcome&item= CCO/N=C(\CC)C1=C(O)CC(c2c(C)cc(C)cc2C)CC1=O (centres undefined)
Response: inactive

Request: What does the record list as outcome for CN1C(=O)c2ccccc2C1=O ?
Response: inactive

Request: What value of measured outcome is listed for COc1ncnc(NS(=O)(=O)c2ccc(N)cc2)c1OC ?
Response: inactive

Request: Given the molecule CC(=O)N[C@@H](Cc1ccc(O)cc1)C(=O)O , what is its reported outcome?
Response: inactive

Request: Please report the recorded outcome for COc1ccccc1O .
Response: inactive

Request: What value of outcome has been recorded for this entry: O=[N+]([O-])c1c2ccccc2cc2ccccc12
Response: inactive

Request: Which value of outcome has been reported for CCCCCCCCCCC(CO)CCCCCCCC (centres undefined) in the records?
Response: inactive

Request: Dear colleague, I am looking for the recorded outcome of the following molecule: Nc1ccc(Cl)cc1
Response: inactive

Request: Data request, read-out outcome, for C/C(=C1\CCOC(=O)S1)N(C=O)Cc1cnc(C)nc1N
Response: inactive

Request: Please look up its outcome: OCCCBr
Response: inactive

Request: Data request, read-out outcome, for CC[N+](C)(CC)CCOC(=O)C(O)(c1ccccc1)C1CCCCC1 (centres undefined)
Response: inactive

Request: Name the reported outcome value associated with the molecule CCCCCCCCCC(CC)c1ccc(S(=O)(=O)O)cc1 (centres undefined)
Response: inactive

Request: // lookup outcome for Nc1ccc(O)c([N+](=O)[O-])c1
Response: inactive

Request: Suppose we examine the molecule O=[N+]([O-])c1ccc([As](=O)(O)O)cc1 ; what outcome value has been reported?
Response: inactive

Request: Which outcome is listed for CCC(C(=O)O)c1ccc(N2Cc3ccccc3C2=O)cc1 (centres undefined) ?
Response: inactive

Request: Which outcome value is on record for CCCCCCCCOc1ccc(C(=O)c2ccccc2)c(O)c1 ?
Response: inactive

Request: Please report the recorded outcome for Cc1cc(-c2ccccc2)nnc1NCCN1CCOCC1 .
Response: inactive

Request: Name the reported outcome value associated with the molecule O=[N+]([O-])c1c(Cl)c(Cl)cc(Cl)c1Cl
Response: inactive

----------
experiment: qHTS for Inhibitors of the Functional Ribonucleoprotein Complex (vRNP) of Lassa (LASV) Arenavirus: Viability assay - alamar blue signal for LASV Primary Screen (AID 1347083); conditions: cell viability, alamar blue fluorescence (LASV minigenome counter-screen); series mostly up to 57.5 µM; note: nearly all actives have a fitted effect of over 80% in size; note: potency is the fitted concentration of half-maximal effect
Results filed as inconclusive are left out. Calls of active or inactive are those of the source. The call rests on the fitted dose curve; tested in HEK293 reporter line.
measured.attribute: Potency

Example compounds with recorded Potency:
# compound, Potency
rows = [
    ("CS(=O)(=O)c1cccc(CNc2nc(Nc3ccc4c(c3)CCC(=O)N4)ncc2C(F)(F)F)c1", "38.5 µM (active)"),
    ("C[C@]12CCC3C(CC[C@H]4C[C@H](O)CC[C@]34C)C1CC[C@@H]2C(=O)CO (stereo not given in full)", "inactive"),
    ("O=c1[nH]c(-c2ccc(C(F)(F)F)cc2)nc2c1CSCC2", "inactive"),
    ("CC(C)(C)c1cc(C(C)(C)C)c(NC(=O)c2c[nH]c3ccccc3c2=O)cc1O", "inactive"),
    ("Cn1cncc1[C@@](N)(c1ccc(Cl)cc1)c1ccc2c(c1)c(-c1cccc(Cl)c1)cc(=O)n2C", "4.32 µM (active)"),
]

Request: I have this compound here, CC(C)C[C@H](NC(=O)CNC(=O)c1cc(Cl)ccc1Cl)B(O)O , and I need its recorded Potency.
Response: 1.53 µM (active)

Request: // Potency lookup, key: CCC(C(=O)O)c1ccc(N2Cc3ccccc3C2=O)cc1 (stereo not given)
Response: inactive

----------
test system: HaCat; assay: Cytotoxic Profiling of Annotated Libraries Using Quantitative High-Throughput Screening (AID 1296008); conditions: Five cell lines viability, CellTiter-Glo ATP luminescence, 48-72 h; note: nearly all actives have a fitted effect of over 60% in size
Records with an inconclusive call do not appear. Calls of active or inactive are those of the source. Calls follow the shape of the dose curve; as a rule, active = well fitted inhibition curve with a large enough effect; inconclusive = small, poorly fitted or top-dose-only effect; inactive = flat fitted curve, though single readings scatter.
measured.attribute: Potency

# molecule, Potency
data = [
    ("C=C1C[C@H]2[C@H]3CCC(=O)[C@@]3(C)CC[C@@H]2[C@@]2(C)C=CC(=O)C=C12", "inactive"),
    ("COC(C)(C)CCCC(C)C/C=C/C(C)=C/C(=O)OC(C)C (stereo not drawn)", "inactive"),
    ("Fc1cc(Br)ccc1CBr", "inactive"),
    ("CCC(=O)OC1CCC2C3CCC4=CC(=O)CC[C@@]4(C)C3CC[C@]12C (stereo partly drawn)", "inactive"),
    ("C#C[C@]1(O)C=C[C@@H]2[C@@H]3CCC4=CC(=O)CC[C@@H]4[C@H]3CC[C@@]21CC", "inactive"),
]

Next up:
Request: Potency lookup needed for C=CCC1=C(C)C(OC(=O)C2C(C=C(C)C)C2(C)C)CC1=O (stereo not drawn) , thanks.
Response: inactive

----------
assay: P-glycoprotein substrates identified in KB-8-5-11 adenocarcinoma cell line, qHTS therapeutic library screen (AID 1346987); conditions: KB-8-5-11 (P-gp overexpressing) viability, CellTiter-Glo, 72 h; series mostly up to 44.5 µM; note: nearly all actives have a fitted effect of over 65% in size
Results filed as inconclusive are left out. Activity calls are given as the source filed them. Calls follow the shape of the dose curve; as a rule, active = well fitted inhibition curve with a large enough effect; inconclusive = small, poorly fitted or top-dose-only effect; inactive = flat fitted curve, though single readings scatter.
// one of 1 (active), -1 (inactive), no free text

Request: Test call, this molecule: O=S(=O)(O)C(F)(F)C(F)(F)C(F)(F)C(F)(F)F
Response: -1

Request: Entry CN(C)[C@@H]1C(=O)C(C(N)=O)=C(O)[C@@]2(O)C(=O)C3=C(O)c4c(O)cccc4[C@@](C)(O)[C@H]3[C@H](O)[C@@H]12 : call = ?
Response: -1

Request: For CC[C@H]1C=CC=CC[C@@H](C)[C@H](O)[C@@](C)(O)C(=O)[C@@H](C)[C@H](O)[C@@H](C)C(=O)[C@@H](C)[C@H](O)[C@@H](C)C=CC(=O)O[C@@H]2[C@@H](C)[C@H](CC1)O[C@]1(CC[C@H](C)[C@H](C[C@@H](C)O)O1)[C@H]2C , which call appears in the assay record?
Response: 1
